biological target: T1, human PD-1 ECD/Fc fusion protein (human); assay: RBA ELISA on huPD-1/Fc; competitor biotin-huPD-L1/Fc
T1 construct: also called huPD-1/Fc; HuPD-1 ECD/Fc
observable: IC50 (nM)
One number for each entry, in nM.

Prompt line: Please give the measured IC50 for this binder: mAb713 (antibody, V domains shown, murine hybridoma anti-PD-1 mAb) VH: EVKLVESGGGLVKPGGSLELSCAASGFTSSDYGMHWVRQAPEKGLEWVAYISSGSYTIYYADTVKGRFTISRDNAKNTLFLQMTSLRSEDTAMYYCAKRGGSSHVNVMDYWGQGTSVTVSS VL: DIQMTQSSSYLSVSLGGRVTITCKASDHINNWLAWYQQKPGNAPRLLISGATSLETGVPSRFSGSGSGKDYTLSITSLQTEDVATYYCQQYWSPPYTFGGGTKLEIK
Response line: 2.95
